Please provide measured IC50 for the entries that follow.
- Subject of test: cyclooxygenase
- Test description: Assay of cyclooxygenase
- Assay setup: enzyme fraction from mastocytoma P-815 cells, [1-14C]-arachidonic acid, 37° C., 7 min; Probit method; read-out: IC 50 Cyclooxygenase

Kindly indicate its recorded IC50. Item: CCCCCCCCC(O)CCc1ccc(O)c(O)c1 (centres unmarked) [Example 9, 1-(3,4-Dihydroxyphenyl)-3-undecanol]
> 10 µM

Identify measured IC50 corresponding to OCCCCCCCCCCCc1ccc(O)c(O)c1 [Example 23, 11-(3,4-dihydroxyphenyl)-1-undecanol]
> 10 µM

---

- Subject of test: 5-lipoxygenase (Mus musculus)
- Construct: endogenous in cells
- Sequence (P48999 whole entry): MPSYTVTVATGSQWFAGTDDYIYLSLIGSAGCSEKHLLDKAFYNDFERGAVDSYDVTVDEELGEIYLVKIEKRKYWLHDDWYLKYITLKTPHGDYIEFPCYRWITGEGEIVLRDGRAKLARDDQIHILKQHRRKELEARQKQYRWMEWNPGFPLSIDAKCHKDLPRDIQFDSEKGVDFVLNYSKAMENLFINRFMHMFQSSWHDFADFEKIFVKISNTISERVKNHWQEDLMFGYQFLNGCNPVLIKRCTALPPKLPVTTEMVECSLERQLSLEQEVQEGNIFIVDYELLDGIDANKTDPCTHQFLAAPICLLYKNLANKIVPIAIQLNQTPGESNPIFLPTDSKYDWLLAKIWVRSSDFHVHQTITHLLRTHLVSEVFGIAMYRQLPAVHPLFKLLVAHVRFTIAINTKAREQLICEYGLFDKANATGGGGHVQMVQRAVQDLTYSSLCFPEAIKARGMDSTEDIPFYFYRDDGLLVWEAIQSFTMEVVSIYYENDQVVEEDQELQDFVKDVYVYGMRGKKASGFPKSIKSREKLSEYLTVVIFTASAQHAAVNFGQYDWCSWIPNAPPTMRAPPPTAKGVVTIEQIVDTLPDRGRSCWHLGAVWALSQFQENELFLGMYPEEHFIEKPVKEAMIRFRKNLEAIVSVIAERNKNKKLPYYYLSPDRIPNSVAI
- Test description: Assay of 5-lipoxygenase
- Assay setup: enzyme fraction from mastocytoma P-815 cells, [1-14C]-arachidonic acid, 37° C., 5 min; Probit method; read-out: IC 50 5-Lipoxygenase
Task for the reader: assign each of the following compounds its reported pIC50.
Interpret pIC50 as the negative base-10 log of the concentration measured in mol/L.

Provide pIC50 value for the following compound: CC(=O)CCCCCCCc1ccc(O)c(O)c1 [Example 20, 9-(3,4-dihydroxyphenyl)-2-nonanone]
6.64

Given the compound OCCCCCCCCCCCc1ccc(O)c(O)c1 [Example 23, 11-(3,4-dihydroxyphenyl)-1-undecanol] , write its reported pIC50.
7.27

State, in one line, measured pIC50 of CCCCC(C)C(O)CCc1ccc(O)c(O)c1 (stereo not shown) [Example 1]
6.52

Hello, please tell me recorded pIC50 for this one: CCCCCCCCC(O)CCc1ccc(O)c(O)c1 (stereo not shown) [Example 9, 1-(3,4-Dihydroxyphenyl)-3-undecanol]
7.00

Provenance of the data: patent US4618627A
